Ref: PubChem BioAssay AID588517

protocol description: intrinsic fluorescence of compounds, yeast control strain – S. cerevisiae AD/pABC3, flow cytometry, Cherry Pick1 set, artefact control for antifungal efflux pump inhibitor project, confirmation (AID 588517);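 note: unstained yeast with no Nile Red so the signal is compound autofluorescence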
measurement context: S. cerevisiae AD/pABC3, compound fluorescence, at 10 µM, active compounds read high
Hit rate of the full screen: of about 1,700 compounds, about 65 (4%) were called active. The list is a sample of the results.

molecule	fluorescence ratio to DMSO / %
O=S(=O)(c1ccccc1)N1CCc2ccccc21	163
CCCCCCCCCCCCCCCC(=O)OC/C=C(C)/C=C/C=C(C)/C=C/C1=C(C)CCCC1(C)C	106
C=CCC[C@@H](Cc1ccc(F)cc1)C(=O)OC[C@H](Cc1c[nH]c2ccccc12)NC(=O)[C@@H](CC=C)CC(=O)N(CCO)Cc1ccccc1	92.1
Cc1nc2c(C(=O)NCc3ccc4c(c3)OCO4)c[nH]n2c(=O)c1Cc1ccccc1F	84.3
CCOc1ccc(C2/C(=C(/O)c3ccc4c(c3)CC(C)O4)C(=O)C(=O)N2CCCn2ccnc2)cc1 (centres undefined)	107
COc1ccc(NC(=S)N2CCc3cc(OC)c(OC)cc3C2)cc1	102
CC(/C=N/NC(=O)c1cc(-c2ccc3ccccc3c2)n[nH]1)=C\c1ccco1	88.7
Cc1ccc2c(c1)NC(=O)[C@@]1(C)[C@@H](c3ccccc3)[C@H]3COc4ccc(Cl)cc4[C@@H]3N1C2=O	103
Cc1cc(/C=N/NC(=O)CC2(C)OCCO2)c(C)n1-c1ccc(Cl)c(Cl)c1	102

----------
Listing of entries alongside the reported fluorescence ratio to DMSO.
protocol description: intrinsic fluorescence of compounds, yeast control strain – S. cerevisiae AD/pABC3, flow cytometry, Cherry Pick1 set, artefact control for antifungal efflux pump inhibitor project, confirmation (AID 588517);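 note: unstained yeast with no Nile Red so the signal is compound autofluorescence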
measurement context: S. cerevisiae AD/pABC3, compound fluorescence, at 10 µM, active compounds read high
In all, about 1,700 compounds went through this assay and about 65 (4%) were called active. Only a sample is shown.

molecule	unit spec	fluorescence ratio to DMSO
CCCCN1C(=O)/C(=C/C=C2/C=Cc3ccccc3N2CC)SC1=S	%	68.5
COc1ccc2sc(-c3ccccc3OC)c(-c3ccc(OCCN4CCCC4)cc3)c2c1	%	112
O=C(Nc1ccc(NC(=O)c2cccs2)cc1)c1ccc2ccccc2c1	%	109
Cc1c(CCOC(=O)CC23CC4CC(CC(C)(C4)C2)C3)sc[n+]1Cc1ccc([N+](=O)[O-])cc1	%	106
COc1ccc(C(=O)C2CCCN(Cc3cccn3-c3ccccn3)C2)c(C)c1 (stereo not given)	%	109
CCOc1ccc(/C=C2\SC(=S)N(NC(=O)c3ccncc3)C2=O)cc1OC	%	100
CC(/C=C/c1ccccc1)=N\NC(=O)C1CC1(C)c1ccccc1 (stereo not given)	%	94.4
COc1ccc(C(=O)NC2CC(C)(C)Cc3c2cnn3-c2ccccc2)c(OC)c1 (stereo not given)	%	100
CSCCC(NC(=O)COc1ccccc1)C(=O)OCCOc1ccc(Br)cc1 (stereo not given)	%	93.4
Cc1ccc(Cn2nnc3c(=O)[nH]c(C4CCN(S(=O)(=O)/C=C/c5ccccc5)CC4)nc32)cc1	%	110

----------
Listing of entries alongside the reported fluorescence ratio to DMSO.
protocol description: intrinsic fluorescence of compounds, yeast control strain – S. cerevisiae AD/pABC3, flow cytometry, Cherry Pick1 set, artefact control for antifungal efflux pump inhibitor project, confirmation (AID 588517);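 note: unstained yeast with no Nile Red so the signal is compound autofluorescence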
measurement context: S. cerevisiae AD/pABC3, compound fluorescence, at 10 µM, active compounds read high
Out of some 1,700 compounds screened, about 65 (4%) were called active. A selection follows.

compound	fluorescence ratio to DMSO / %
CCOC(=O)CNC(=O)CSc1nnnn1-c1cc(C)ccc1C	101
COc1ccccc1CSc1ncc(-c2ccc([N+](=O)[O-])cc2)[nH]1	110
O=C(CNC(=O)c1ccc(-c2ccccc2)cc1)OCc1ccc(Cl)cc1	110
O=C(CN1C(=O)C2C3CCC(C3)C2C1=O)Oc1ccc2ccccc2c1 (configuration not stated)	107
Cc1csc(NC(=O)c2ccc(-c3ccc(Cl)cc3Cl)o2)n1	96.6
Cc1ccc(OCc2cc(C(=O)N(C)CCc3ccccc3)no2)cc1C	106
CCOc1ccccc1/C=c1\sc2nc(-c3ccco3)nn2c1=O	126
